Entry source: patent US6274715A

- System: STREPTOCOCCUS PYOGENES PIU 2548
- protocol.notes: In vitro antibacterial activity, MIC, BHI agar dilution
- Format: cell-based
- assay.conditions: S. pyogenes PIU 2548, unit assumed
endpoint.name: MIC (µg/mL)
# output: bare number, implied unit µg/mL

For orientation, consider the following solved cases.
compound | units.symbol | experimental.value
CCC1OC(=O)C(C)C(=O)C(C)C(OC2OC(C)CC(N(C)C)C2O)C(C)(OC)CC(C)C2=NC(CN(C)C)CN3C(=O)OC1(C)C3C2C (stereo not drawn) | µg/mL | 0.2
CC[C@H]1OC(=O)[C@H](C)C(=O)[C@H](C)[C@@H](O[C@@H]2O[C@H](C)C[C@H](N(C)C)[C@H]2O)[C@](C)(OC)C[C@@H](C)C2=N[C@@H]3CN(Cc4ccccc4)C[C@@H]3N3C(=O)O[C@@]1(C)[C@H]3[C@H]2C | µg/mL | 0.39

Query string: Reported MIC, compound CC[C@H]1OC(=O)[C@H](C)C(=O)[C@H](C)[C@@H](O[C@@H]2O[C@H](C)C[C@H](N(C)C)[C@H]2O)[C@](C)(OC)C[C@@H](C)C2=N[C@H](C)[C@H](C)N3C(=O)O[C@@]1(C)[C@H]3[C@H]2C : ____
Result string: 0.39

---

- Tested on: STAPHYLOCOCCUS EPIDERMIDIS 3519
- Format: cell-based
- assay.conditions: S. epidermidis 3519; BHI agar; unit assumed
The entries below come with measured MIC values attached.
Please reply with the bare figure in µg/mL and do not write the unit itself.

// known answers, use as guide
compound | units.symbol | experimental.value
CC[C@H]1OC(=O)[C@H](C)C(=O)[C@H](C)[C@@H](O[C@@H]2O[C@H](C)C[C@H](N(C)C)[C@H]2O)[C@](C)(OC)C[C@@H](C)C2=NC[C@@H](COCc3ccccc3)N3C(=O)O[C@@]1(C)[C@H]3[C@H]2C | µg/mL | 0.1
CC[C@H]1OC(=O)[C@H](C)C(=O)[C@H](C)[C@@H](O[C@@H]2O[C@H](C)C[C@H](N(C)C)[C@H]2O)[C@](C)(OC)C[C@@H](C)C2=NCC(COC(=O)c3ccc([N+](=O)[O-])cc3)N3C(=O)O[C@@]1(C)[C@H]3[C@H]2C (some centres unmarked) | µg/mL | 0.1
CC[C@H]1OC(=O)[C@H](C)C(=O)[C@H](C)[C@@H](O[C@@H]2O[C@H](C)C[C@H](N(C)C)[C@H]2O)[C@](C)(OC)C[C@@H](C)C2=N[C@H](COCc3cc(C)c4ccccc4n3)CN3C(=O)O[C@@]1(C)[C@H]3[C@H]2C | µg/mL | 0.39

Query string: Look up MIC: CCC1OC(=O)C(C)C(=O)C(C)C(OC2OC(C)CC(N(C)C)C2O)C(C)(OC)CC(C)C2=NC(CN3CCCCC3)CN3C(=O)OC1(C)C3C2C (centres unmarked)
Result string: 0.39

Query string: Fill in the blank: the reported MIC of CC[C@H]1OC(=O)[C@H](C)C(=O)[C@H](C)[C@@H](O[C@@H]2O[C@H](C)C[C@H](N(C)C)[C@H]2O)[C@](C)(OC)C[C@@H](C)C2=NC[C@H](CO)N3C(=O)O[C@@]1(C)[C@H]3[C@H]2C is ____.
Result string: 0.78
